Molecular target: L-lactate dehydrogenase (Plasmodium falciparum, UniProt B9UDZ5)
Sequence (B9UDZ5 whole entry): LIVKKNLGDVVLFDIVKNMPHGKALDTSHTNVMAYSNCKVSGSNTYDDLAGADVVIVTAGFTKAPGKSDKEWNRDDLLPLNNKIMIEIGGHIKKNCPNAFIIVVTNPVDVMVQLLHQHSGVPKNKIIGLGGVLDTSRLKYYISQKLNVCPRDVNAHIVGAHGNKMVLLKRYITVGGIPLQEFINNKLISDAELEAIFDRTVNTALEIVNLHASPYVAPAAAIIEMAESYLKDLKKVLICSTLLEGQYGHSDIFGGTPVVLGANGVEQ
Measured IC50 by item
I only need the number, in µM, no unit after it.

# annotated cases, reported IC50 shown
Compound: CC(C)c1ccc2c(c1)CCC1[C@](C)(CNC(=O)C(=O)O)CCC[C@]21C (stereo partly drawn)
Unit name: µM
IC50: 59
--
Compound: O=C(O)C(=O)N1CCC(Cc2ccccc2)CC1
Unit name: µM
IC50: 101

Need IC50, item `Cc1cc2c(C(C)C)c(O)c(O)c(C=O)c2c(O)c1-c1c(C)cc2c(C(C)C)c(O)c(O)c(C=O)c2c1O`
3.97

====

A set of compounds tested on L-lactate dehydrogenase B chain (Bos taurus), with measured IC50:

# annotated cases, reported IC50 shown
Compound: Cc1ccc(CNC(=O)C(=O)O)o1 [Oxamic Acid/Ester, 15]
IC50: > 200 µM
//
Compound: CCCCCCCNC(=O)C(=O)O [Oxamic Acid/Ester, 10]
IC50: > 200 µM

Need IC50, item Cc1cccc(N(C(=O)C(=O)O)c2ccccc2)c1 [Oxamic Acid/Ester, 7]
107 µM

Now the compound CC(C)c1ccc2c(c1)CCC1[C@](C)(CNC(=O)C(=O)O)CCC[C@]21C (stereo not given in full) [Oxamic Acid/Ester, 18]
20 µM

Now the compound CSc1cccc(NC(=O)C(=O)O)c1 [Oxamic Acid/Ester, 37]
> 200 µM
